This section presents compounds with their documented Inhibition values.
Target: DNA topoisomerase 1 (Homo sapiens)
Experiment: Inhibition of topoisomerase 1 DNA cleavage activity
Numeric only. Scale: µM

Here is how some compounds turned out for Inhibition.
chemicalStructure | displayUnit | numericReadout
Cc1ccc(S(=O)(=O)n2cc3c4c2C(=O)c2[nH]nc(-c5ccc(O)cc5)c2C4=NCC3)cc1 | µM | 30
Cc1ccc(S(=O)(=O)n2cc3c4c2C(=O)c2cn[nH]c2C4=NCC3)cc1 | µM | 300
O=C1c2[nH]cc3c2C(=NCC3)c2n[nH]c(-c3ccc(O)cc3)c21 | µM | 300

Here is the next item to consider.
Query: Item under review: "Cc1ccc(S(=O)(=O)n2cc3c4c2C(=O)c2c(cnn2C)C4=NCC3)cc1" . Reported Inhibition?
Reply: 300

* * *

Molecular target: DNA topoisomerase II (Homo sapiens) (UniProt P11388+Q02880)
Test: Inhibition of topoisomerase 2 DNA cleavage activity
Type: protein assay
reportedProperty: Inhibition

Query: Item under review: "Cc1ccc(S(=O)(=O)n2cc3c4c2C(=O)c2cn[nH]c2C4=NCC3)cc1" . Reported Inhibition?
Reply: > 300 µM

Query: // same read-out, input: "Cc1ccc(S(=O)(=O)n2cc3c4c2C(=O)c2[nH]nc(-c5ccc(O)cc5)c2C4=NCC3)cc1"
Reply: > 100 µM

Query: // same read-out, input: "O=C1c2[nH]cc3c2C(=NCC3)c2[nH]nc(-c3ccccc3)c21"
Reply: > 100 µM

Query: // same read-out, input: "Cc1ccc(S(=O)(=O)n2cc3c4c2C(=O)c2n[nH]cc2C4=NCC3)cc1"
Reply: > 100 µM

Query: // same read-out, input: "Cn1ncc2c1C(=O)c1[nH]cc3c1C2=NCC3"
Reply: > 100 µM

Query: // same read-out, input: "O=C1c2[nH]cc3c2C(=NCC3)c2c(-c3ccccc3)n[nH]c21"
Reply: > 100 µM

* * *

Molecular target: DNA topoisomerase 1 (Homo sapiens) (UniProt P11387)
Sequence (P11387 whole entry): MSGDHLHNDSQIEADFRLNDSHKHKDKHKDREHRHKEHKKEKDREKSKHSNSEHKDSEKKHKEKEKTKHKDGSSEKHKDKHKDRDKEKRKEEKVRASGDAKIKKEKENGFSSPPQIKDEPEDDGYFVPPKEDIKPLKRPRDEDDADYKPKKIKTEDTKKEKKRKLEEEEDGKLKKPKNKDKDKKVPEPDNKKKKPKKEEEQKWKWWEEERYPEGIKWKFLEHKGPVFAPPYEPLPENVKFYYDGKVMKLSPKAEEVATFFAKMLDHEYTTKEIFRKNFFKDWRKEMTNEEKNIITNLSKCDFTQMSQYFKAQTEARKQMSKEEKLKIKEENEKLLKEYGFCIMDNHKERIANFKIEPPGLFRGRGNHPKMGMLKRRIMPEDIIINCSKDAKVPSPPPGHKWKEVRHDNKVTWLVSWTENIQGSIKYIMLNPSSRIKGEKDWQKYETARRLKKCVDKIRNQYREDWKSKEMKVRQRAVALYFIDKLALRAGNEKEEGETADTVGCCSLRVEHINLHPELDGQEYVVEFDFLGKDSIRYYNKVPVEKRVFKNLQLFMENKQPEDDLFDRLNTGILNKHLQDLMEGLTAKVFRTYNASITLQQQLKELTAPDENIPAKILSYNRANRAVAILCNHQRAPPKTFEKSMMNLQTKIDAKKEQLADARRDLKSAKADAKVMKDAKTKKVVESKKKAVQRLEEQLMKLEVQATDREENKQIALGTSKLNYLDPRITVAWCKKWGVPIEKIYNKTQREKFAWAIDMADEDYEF
Test: Inhibition of topoisomerase 1 DNA cleavage activity
This section presents compounds with their documented Inhibition values.

Here is how some compounds turned out for Inhibition.
chemicalStructure | targetOfAssay | Inhibition
Cc1ccc(S(=O)(=O)n2cc3c4c2C(=O)c2cnn(C)c2C4=NCC3)cc1 | DNA topoisomerase 1 (Homo sapiens) (UniProt P11387) | > 100 µM
Cn1ncc2c1C1=NCCc3c[nH]c(c31)C2=O | DNA topoisomerase 1 (Homo sapiens) (UniProt P11387) | > 100 µM

Query: Item under review: "O=C1c2c[nH]nc2C2=NCCc3c[nH]c1c32" . Reported Inhibition?
Reply: > 100 µM

Values were extracted from ChEMBL document CHEMBL1147676.
